test system: Human dermal fibroblasts from Friedreich's Ataxia patients; assay: Rescue of FRDA fibroblasts stressed by BSO (Calcein AM viability); format: cell-based; conditions: FRDA fibroblasts GM04078, 1 mM BSO, 48 h; third of three experiments; read-out: EC50 Value 3
measured_endpoint: pEC50
One number for each entry, as −log10 of the molar value.

Kindly note the recorded pEC50 for Cc1c(C)c2c(c(C)c1O)CC[C@@](C)(CCC[C@H](C)CCC[C@H](C)CCCC(C)C)O2 [alpha-tocopherol] , which is 6.46

----------
system: Human dermal fibroblasts from Friedreich's Ataxia patients; test: Rescue of FRDA fibroblasts stressed by BSO (Calcein AM viability); type: cell-based; details: Homo sapiens; FRDA fibroblasts GM04078, 1 mM BSO, 48 h; average, compounds of the invention; read-out: Ec50 Average
Please provide measured EC50 for the entries that follow.
Give bare numbers, in nM.

These solved cases illustrate the format of a correct answer.
Kindly note the recorded EC50 for CN(C)c1ccc2nc3ccc(=O)cc-3sc2c1 [Compound 2] , which is 3

Kindly note the recorded EC50 for O=c1ccc2nc3ccc(C(F)(F)F)cc3sc-2c1 [Compound 3] , which is 28

Next:
Kindly note the recorded EC50 for Cc1cc(=O)c(C)c2sc3ccccc3nc1-2 [Compound 1] , which is 3
